tested on: M14; experiment: NCI-60 one-dose SRB screening; assay type: cell-based; settings: Homo sapiens, M14, Melanoma, 10 µM one dose, 48 h, read-out: growth percentage
assay endpoint: activity at 10 µM (%)
Give the quantity in %, number only.

Cc1nn(-c2ccc(Br)cc2)c2nc(CCl)[nH]c(=O)c12 [13c]	106
Cc1nn(-c2ccccc2)c2nc(CCl)[nH]c(=O)c12 [13b]	103
Cc1nn(-c2ccc(Br)cc2)c2nc(C(F)(F)F)nc(Nc3ccc(NCc4c(-c5ccccc5)no[n+]4[O-])cc3)c12 [12c]	71.9
Cc1nn(-c2ccccc2)c2nc(C(F)(F)F)nc(Nc3ccc(NCc4c(-c5ccccc5)no[n+]4[O-])cc3)c12 [12a]	68.7
Nc1ccc(NCc2c(-c3ccccc3)no[n+]2[O-])cc1 [compound 11]	102

--- query ---
q: Return value of activity at 10 µM for input O=c1[nH]c(CCl)nc2c1cnn2-c1ccccc1 [13a] , no commentary.
a: 110
